B1: glmS ribozyme (parent)
chain: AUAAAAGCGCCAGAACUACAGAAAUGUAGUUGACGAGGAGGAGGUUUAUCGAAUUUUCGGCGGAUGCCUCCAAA

Variants of: B1
Assay: self-cleavage kobs at 640 uM GlcN6P; higher = faster cleavage; RNA array
Details: with glucosamine-6-phosphate
This sample holds only a part of the variants without activity.
PROPERTY_LABEL: self-cleavage kobs at 640 uM GlcN6P (s⁻¹)
Give bare numbers, in s⁻¹.

Some entries whose results are on file:
AUAAAAGCGCCAGAACUACAGAAAUGUAGUUGACGAGGAGGAGGCUUAUCGAACUUUCGGCGGAUGCCUCCAAA [U45C U54C]: 0.00057
AUAAAAGCGCCAGAACUACAGAAAUGUAGGUGACGAAGAGGAGGUUUAUCGAAUUUUCGGCGGAUGCCUCCAAA [U30G G37A]: 9.32e-05
AUAAAAGCGCCUGAACUACAGAAAUGUAGUUGACGAGGAGGAGGUUUAUCGAAUUUUCGGCGGAUGGCUUCAAA [A12U C67G C70U]: 0.000172
AUAAAAGCGCCAGAACUACAGAAAUGUAGUAGACGAAGAGGAGGUUUAUCGAAUUUUCGGCGGAUGCCUCCAAA [U31A G37A]: 0.000245
AUAAAAGCGCCAGAAUUACAGAAAUGUAGUUGACGAGGAGGAGGUUUAUCGAAUAUUCGGCGGAUGCGUCCAAA [C16U U55A C68G]: 8.37e-05

Please go through the list and note self-cleavage kobs at 640 uM GlcN6P for each variant.
1. AUAAAAGCGCCAGAACUACAGAAAUGUAGUUGACGAGGAGGAGGUUUAUGGACAUUUCGGCGGAUGCCACCAAA [C50G A53C U54A U69A]
2. AUAAAAGCGCCAGAACUACAGAAAUGUAGUGUACGAGGAGGAGGUUUAUCGAUUUUUCGGCGGGUGCCUCCAAA [U31G G32U A53U A64G]
3. AUAAAAGCGCCAGAACUACAGAAAUGUAGUUGGCGAGGAGGAGGUUUAUCGAAUUUUCGGCGGAUGCGUCCAAA [A33G C68G]
4. AUAAAAUCGACUGAACUACAGAAAUGUAGUUGACGGGGAGGAGGUUUAUGGAAUUUUCGGCGGAUGCCUCCAAA [G7U C10A A12U A36G C50G]
5. AUAAAAGCGCCAGAACUACAGAAAUGUAGUUGACGAGGAGGAGGUUUAUCGAAUUUUCGGCGGAUGCCUAGAAA [C70A C71G]
6. AUAAAAGCGCCCGAGCUACAGAAAUGUAGUUGACGAGGCGGAGGUUUAUCGAAUUUUCGGCGGAUGCCUCCAAA [A12C A15G A39C]
7. AUAAAAGCGCCAGAACUACAGAAAUGUAGUUGACGAGGAGGAGGUUUAUUGAAUUUUCGGCGGAUGCAUCCAAA [C50U C68A]

1. 0.000691
2. 0.000197
3. 3.59e-05
4. 0.0003
5. 5.81e-05
6. 5.62e-05
7. 4.9e-05

Please go through the list and note self-cleavage kobs at 640 uM GlcN6P for each variant.
1. AUAAAAGCGCUGGAACUACAGAAAUGUAGUUGACGAGGAGGAGGUUUAUCGAAUUUUCGGCGGAUGACUCCAAA [C11U A12G C67A]
2. AUAAAAGCGCCGGAACUACAGAAAUGUAGUUGACGAGGAGGAGGUUUAUCGAAUUUUCGGCGGAUGCUUCCAAA [A12G C68U]
3. AUAAAAGCGCCAGAACUACAGAAAUGUAGGUGACGAGGAGGAGGUUUAUCGAAUUUUCGGCGGAUGCCACCAAA [U30G U69A]

["8.5e-05", "5.55e-05", "4.5e-05"]

Please go through the list and note self-cleavage kobs at 640 uM GlcN6P for each variant.
1. AUAAAAGCGCCAGAACUACAGAAAUGUAGUUGACGAGGAGGAGGGUUAUCGAAUUUUCGGCGGAUCCCUCCAAA [U45G G66C]
2. AUAAAAGCGCCAGAACUACAGAAAUGUAGUUGACGAGGAGGAGGUAUAUCGAAGUUUCGGCGGAUGCCUACAAA [U46A U54G C70A]
3. AUAAAAGCGCCAGAACUACAGAAAUGUAGGUGACGAGGAGGAGGUCGAUCGAAUUUUCGGCGGAUGCCUCCAAA [U30G U46C U47G]
4. AUAAAAGCGCCAGAACUACAGAAAUGUAGUUGACGAGGAGGAGGUUACUCGAAUUUUCGGCGGAUGCCUCCAAA [U47A A48C]

[0.000414, "5.86e-05", "8.33e-05", 0.000145]

Please go through the list and note self-cleavage kobs at 640 uM GlcN6P for each variant.
1. AUAAAAGCGUCAGAACUACAGAAAUGUAGUUGACGAGUAGGAGGUUUAUCGAAUUUUCGGCGGAUGCCACCAAA [C10U G38U U69A]
2. AUAAAAGCGCCAGAACUACAGAAAUGUAGUUGACGAGGAGGAGGUUUAUCGAAUUUUCGGUGGAUGCCACCAAA [C61U U69A]

1: 8.22e-05; 2: 4.2e-05

Please go through the list and note self-cleavage kobs at 640 uM GlcN6P for each variant.
1. AUAAAAGCGCCAAAACUACAGAAAUGUAGUUGACGAGGAGGAGGUUUAUCGAAAUUUCGGCGGAUGCCUCCAAA [G13A U54A]
2. AUAAAAGCGCCAGAACUACAGAAAUGUAUUUGACGAGGAGGAGGUUUAUCGAAUUUUCGGCGGAUGCCUGCAAA [G29U C70G]
3. AUAAAAGCGCCAGAUCUACAGAAAUGUAGUAGACGAGGAGGAGGUUUAUCGAAUUUUCGGCGGAUGCCUCCAAA [A15U U31A]
4. AUAAAAGCGCCCGAUCUACAGAAAUGUAGUUGACGAGGGGGAGGUUUAUCGAAUUUUCGGCGGAUGCCUCCAAA [A12C A15U A39G]
5. AUAAAAGCGCCAGAACUACAGAAAUGUAGUUGACGAGGCGGAGGUUAAUCGAAUUUUCGGCGGAUGCCUCCAAA [A39C U47A]

[0.000147, "5.02e-05", 0.000289, 0.000865, 0.000865]

Please go through the list and note self-cleavage kobs at 640 uM GlcN6P for each variant.
1. AUAAAAGCGCCAGAACUACAGAAAUGUAGUUGUCGAGAAGGAGGUUUGUCGAAUUUUCGGCGGAUUCCGCCAAA [A33U G38A A48G G66U U69G]
2. AUAAAAGCGCCAGAACUACAGAAAUGUAGUUGACGAGGAGGAGGUUUAUCGAAUGUUCGGCGGAUGCCCCCAAA [U55G U69C]
3. AUAAAAGCGCCUGAACUACAGAAAUGUAGUUGACGAGGAGGAGGUUUAUCGAAUUUCCGGCGGAUGCCUCCAAA [A12U U57C]
4. AUAAAAGCGCCAGAACUACAGAAAUGUAGUUGACGAGGAGGAGGUUUAUCGAAUUUUCGGCGGCUGCCUCCAAA [A64C]
5. AUAAAAGCGCCAGAAAUACAGAAAUGUAGUUGACGAGGAGGAGGUUUAUCGAAUUGUCGGCGGAGGCCUCCAAA [C16A U56G U65G]
6. AUAAAAGCGCCAGAACUACAGAAAUGUAGUUAACGAGGAGGAGGUUUAUCGAACUUUCGGCGGAUGCCUCCAAA [G32A U54C]

1: 0.000108; 2: 0.000303; 3: 0.000217; 4: 5.05e-05; 5: 5.32e-05; 6: 0.000309

Please go through the list and note self-cleavage kobs at 640 uM GlcN6P for each variant.
1. AUAAAAGCGCCAGAACUACAGAAAUGUAGUUGACGAGGAGGAGGUUUAUAGAAUUUUCGGCGGAUGCCUCCAAA [C50A]
2. AUAAAAGUGCUAGAACUACAGAAAUGUAGUUGACGAGGAGGAGGUUUAUCGAAUUUUAGGCGGAUGGCUCCAAA [C8U C11U C58A C67G]
3. AUAAAAGCGCCAGAACUACAGAAAUGUAGAUGACGAGGAGGAGGUCUAUCGAAUUUUCGGCGGAUGCCUCCAAA [U30A U46C]
4. AUAAAAGCGCCAGAACUACAGAAAUGUAUUUUACGAGGAGGAGGUUUAUCGAAUUUUCGGCGGAUGCCUCCAAA [G29U G32U]

1: 1.25e-05; 2: 0.00126; 3: 0.000117; 4: 0.00011

Please go through the list and note self-cleavage kobs at 640 uM GlcN6P for each variant.
1. AUAAAAGCGCCAGAACUACAGAAAUGUAGUUGACGAGGAGGAGGUUUAUCGAAUUUUCGGCGGGUGACUCCAAA [A64G C67A]
2. AUAAAAGCGCCAGAACUACAGAAAUGUAGUUGACGAGGUUGAGGUUUAUCGAAUUUUCGGCGGAUGCCUUCAAA [A39U G40U C70U]
3. AUAAAAGCGCCAGAACUACAGAAAUGUAGUUGACGAGGACGAGGUUUAUCGAAUUUUCGGCGGAUACCUACAAA [G40C G66A C70A]

1: 0.000794; 2: 0.000466; 3: 9.02e-05
